target: Urokinase from human urine (Homo sapiens, UniProt P00749); assay: Enzymatic assay, urokinase
Where a SMILES comes first, the peptide text is derived from it.
Urokinase at 100 μM %: recorded values
Hi! Could you send only the number? It should be in %, unit omitted.

# count of solved cases: 2
# compound, Urokinase at 100 μM % (%)
records = [
    ("CCCCCC[C@@H]1NC(=O)[C@@H]2CCCN2C(=O)[C@H]2CCCN2C(=O)[C@H](Cc2ccc(O)cc2)NC(=O)[C@@H]2CSSC[C@H](NC1=O)C(=O)N[C@@H]([C@@H](C)O)C(=O)N[C@@H](C)C(=O)N[C@@H](CO)C(=O)N[C@@H]([C@@H](C)CC)C(=O)N1CCC[C@H]1C(=O)N1CCC[C@H]1C(=O)N[C@@H](CCC(N)=O)C(=O)N2 [Ex. 99] (HELM PEPTIDE1{[CCCCCC[C@H](N[*:1])C(=O)[*:2]].C.T.A.S.I.P.P.Q.C.Y.[dP].P}$PEPTIDE1,PEPTIDE1,2:R3-10:R3|PEPTIDE1,PEPTIDE1,1:R1-13:R2$$$V2.0)", 17.4),
    ("CC[C@H](C)[C@@H]1NC(=O)[C@H](C)NC(=O)[C@@H]2CCCN2C(=O)[C@H](CC(=O)O)NC(=O)[C@H](CO)NC(=O)[C@H](CCCCN)NC(=O)[C@H]([C@@H](C)O)NC(=O)[C@@H]2CSSC[C@H](NC1=O)C(=O)N[C@@H](CCCNC(=N)N)C(=O)N1CCC[C@@H]1C(=O)N1CCC[C@H]1C(=O)N[C@@H]([C@@H](C)CC)C(=O)N2 [Ex. 14] (HELM PEPTIDE1{I.C.T.K.S.D.P.A.I.C.R.[dP].P}$PEPTIDE1,PEPTIDE1,2:R3-10:R3|PEPTIDE1,PEPTIDE1,1:R1-13:R2$$$V2.0)", 5.4),
]

Please examine the following record next.
Give its Urokinase at 100 μM % value. Item: CCCC[C@@H]1NC(=O)[C@@H]2CCCN2C(=O)[C@H]2CCCN2C(=O)[C@H](CC2CCCCC2)NC(=O)[C@@H]2CSSC[C@H](NC1=O)C(=O)N[C@@H]([C@@H](C)O)C(=O)N[C@@H](C)C(=O)N[C@@H](CO)C(=O)N[C@@H]([C@@H](C)CC)C(=O)N1CCC[C@H]1C(=O)N1CCC[C@H]1C(=O)N[C@@H](CCC(N)=O)C(=O)N2 [Ex. 97] (HELM PEPTIDE1{[Nle].C.T.A.S.I.P.P.Q.C.[Cha].[dP].P}$PEPTIDE1,PEPTIDE1,2:R3-10:R3|PEPTIDE1,PEPTIDE1,1:R1-13:R2$$$V2.0)
11.9
